The reported numbers originate from patent US20150376286A1.

- target.or.test.system: human adrenomedullin receptor 1 (hCRLR + hRAMP2) (human, UniProt O60895 43-175)
- Sequence (chain, as listed by the source, chain 1 of 2): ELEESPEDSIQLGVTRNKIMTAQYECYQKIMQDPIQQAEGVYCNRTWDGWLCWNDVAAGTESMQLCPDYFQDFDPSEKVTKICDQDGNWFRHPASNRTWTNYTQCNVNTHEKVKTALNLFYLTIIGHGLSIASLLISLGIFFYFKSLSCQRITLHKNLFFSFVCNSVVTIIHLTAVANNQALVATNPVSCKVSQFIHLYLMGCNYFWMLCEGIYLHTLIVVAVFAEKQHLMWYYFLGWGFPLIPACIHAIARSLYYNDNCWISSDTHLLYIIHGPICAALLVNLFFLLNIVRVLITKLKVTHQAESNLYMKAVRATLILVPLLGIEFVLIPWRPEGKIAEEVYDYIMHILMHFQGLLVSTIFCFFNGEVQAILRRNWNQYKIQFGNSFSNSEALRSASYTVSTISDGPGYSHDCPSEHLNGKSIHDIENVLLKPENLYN
- Sequence (O60895 43-175, chain 2 of 2): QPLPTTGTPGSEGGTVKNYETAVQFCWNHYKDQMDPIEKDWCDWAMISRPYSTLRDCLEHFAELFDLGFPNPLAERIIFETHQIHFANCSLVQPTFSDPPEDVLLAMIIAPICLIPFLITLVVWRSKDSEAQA
- procedure.summary: cell-based or functional assay
Attribute: cAMP assay IC50

Quick one: cAMP assay IC50 for 4E4 (antibody, human IgG2, lambda, V domains shown, also called 04E4; 04E4.2) VH: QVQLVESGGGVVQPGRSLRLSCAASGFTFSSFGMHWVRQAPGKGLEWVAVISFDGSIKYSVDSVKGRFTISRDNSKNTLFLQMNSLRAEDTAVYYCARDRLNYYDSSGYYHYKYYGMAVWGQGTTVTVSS VL: QSVLTQPPSVSAAPGQKVTISCSGSSSNIGNNYVSWYQQLPGTAPKLLIYDNNKRPSGIPDRFSGSKSGTSTTLGITGLQTGDEADYYCGTWDSRLSAVVFGGGTKLTVLG ?
> 1 µM

Now examine the next entry.
Entry under review: 12G8 (antibody, human IgG2, lambda, V domains shown, also called 12G8.2) VH: QVQLVESGGGVVQPGRSLRLSCAASGFTFSSFGMHWVRQAPGKGLEWVAVISFDGSIKYSVDSVKGRFTISRDNSKNTLFLQMNSLRAEDTAVYYCARDRLNYYDSSGYYHYKYYGLAVWGQGTTVTVSS VL: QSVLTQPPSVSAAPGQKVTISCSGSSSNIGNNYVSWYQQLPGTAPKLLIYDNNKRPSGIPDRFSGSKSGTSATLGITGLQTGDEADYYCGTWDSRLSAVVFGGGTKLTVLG . Reported cAMP assay IC50?
> 1 µM
